assay: Tmax in wild type FVB mouse plasma at 100 mg/kg, ip; type: ADME, organism-based; design: dose 100 mg/kg, route intraperitoneal
measurement label: Tmax (min)
Give your result in min as a bare value.

Consider the compound shown here: COc1cc2c(cc1OC)CN(CCc1ccc(NC(=O)c3cccc4c(=O)c5cccc(OC)c5[nH]c34)cc1)CC2 [ELACRIDAR] What is its recorded Tmax?
30

---

assay: Terminal half life in wild type FVB mouse brain at 100 mg/kg, po; type: ADME, organism-based; parameters: dose 100 mg/kg, route oral; details: read-out: beta t1/2 (converted)
measurement label: half-life
Report the figure along with its unit, number first.

Recorded half-life for COc1cc2c(cc1OC)CN(CCc1ccc(NC(=O)c3cccc4c(=O)c5cccc(OC)c5[nH]c34)cc1)CC2 [ELACRIDAR] , please?
960 min
